# System: NCI-H226 lung
# test: NCI-60 one-dose screen, 48 h (100 = growth as untreated, 0 = no growth, -100 = all killed)
# conditionSet: 10 µM unless noted
Compounds without any hit were thinned out: in the full panel of roughly 83,000, 20% have a hit.
testReadout: growth (%)

# compound, unitDescriptor, readoutNumber
records = [
    ("C[C@]12CC[C@@H]3C4=C(CC[C@H]3[C@@H]1CC[C@@H]2O)CC(=O)CC4", "%", 94),
    ("O=c1cc[nH]c(=O)o1", "%", 98.4),
    ("COc1ccc(/C=C(/C(=O)N2CCCC2)c2cc(OC)c(OC)c(OC)c2)cc1N", "%", 75.9),
    ("CCOc1ccc(C(O)CN(C)Cc2ccccc2)cc1Cl (configuration not stated)", "%", 92.1),
    ("NC(Cc1ccc(O)cc1)C(=O)N/N=C/c1ccc(N(CCCl)CCCl)cc1 (configuration not stated)", "%", 46.8),
    ("CC1(C)N=C(N)N=C(N)N1c1ccc(CCC(=O)Nc2cccc(S(=O)(=O)F)c2)cc1", "%", 89),
    ("CCCCCCCCCCOc1ccc(C(=O)Oc2ccc(CSP3(=O)OCC4OC(n5ccc(=O)[nH]c5=O)C(F)C4OP(=O)(O)OCC4OC(n5cnc6c(N)ncnc65)C(F)C4O3)cc2)cc1 (configuration not stated)", "%", 75.5),
    ("CO[C@@H]1[C@H](OC(=O)NC(=O)CCl)CC[C@]2(CO2)[C@H]1[C@@]1(C)O[C@@H]1CC=C(C)C", "%", 72.7),
    ("ClCCN(CCCl)c1ccc(C=NCCc2c[nH]c3ccccc23)cc1", "%", -10.5),
    ("COC(C)(C)CCC[C@H](C)C/C=C/C(C)=C/C(=O)OC(C)C", "%", 103),
    ("CCOC(=O)/C(C#N)=C/c1ccc(N(CCCl)CCCl)cc1", "%", 72.2),
    ("CC(C)CCC1(CCO)C(=O)NC(=S)NC1=O", "%", 105),
    ("CCC(CC)(c1ccccc1)C(OC(N)=O)c1ccccc1 (configuration not stated)", "%", 81.8),
    ("O=C1NC(=O)C(=Cc2cn(Cc3ccccc3)c3ccccc23)C(=O)N1", "%", -68.9),
    ("O=C(C(=O)N1CCCC1)c1cn(CCCCCn2cc(C(=O)C(=O)N3CCCC3)c3ccccc32)c2ccccc12", "%", 89),
    ("O=C(O)c1[nH]c(=O)[nH]c(=O)c1F", "%", 86.2),
    ("CCC(CO)NC1CCCCC1 (configuration not stated)", "%", 114),
    ("CCOCC1(CCc2ccccc2)C(=O)NC(=S)NC1=O", "%", 106),
    ("c1ccc(-c2ccc3ccccc3[o+]2)cc1", "%", 85.4),
    ("CC(=O)OC1CCC2(C)C(=CCC3C4CC(CN5CC5)C(=O)C4(C)CCC32)C1 (configuration not stated)", "%", 97.7),
    ("C[CH2][Pb]([CH2]C)([CH2]C)[O]C(=O)COc1ccccc1", "%", 23.2),
    ("O=C(O)CNC(=O)c1ccccc1", "%", 109),
    ("O=C1NC(=O)C(O)(C2(O)C(=O)NC(=O)NC2=O)C(=O)N1", "%", 99.5),
    ("c1ccc([As]=[As]c2ccccc2)cc1 (configuration not stated)", "%", 5.17),
    ("C/C(=N/OC(=O)N(C)C)c1cc(Cl)ccc1Cl", "%", 99.4),
    ("CC(=O)O[C@H]1CC[C@H]2[C@@H]3CC[C@H]4CC=C(C)C[C@]4(C)[C@H]3CC[C@]12C", "%", 103),
    ("OC1CCCCC1N1CCC(c2ccccc2)CC1 (configuration not stated)", "%", 114),
]

---

# Tested on: OVCAR-3 ovarian
# test: NCI-60 one-dose screen, 48 h (100 = growth as untreated, 0 = no growth, -100 = all killed)
# conditionSet: 10 µM unless noted
This is part of a sample that, as a whole, favours compounds with a hit. Of some 83,000 tested, about 20% had one in any assay.
Is growth at least 40%? Then TRUE. If not, FALSE.

# compound, className
rows = [
    ("CC12CCC(=O)C=C1CCC1C2CCC2(C)C(C(=O)COC(=O)Cc3ccc(N(CCCl)CCCl)cc3)CCC12 (stereo unspecified)", "TRUE"),
    ("Cc1ccc2oc(=O)c3c(c2c1)OC(N)=C(C#N)C3c1ccco1 (stereo unspecified)", "TRUE"),
    ("COc1cc(C2(C#N)CCN(C)CC2)cc(OC)c1OC", "TRUE"),
    ("CCC(C)[C@H]1O[C@]2(C=C[C@@H]1C)C[C@@H]1C[C@@H](C/C=C(\\C)[C@@H](OC3C[C@H](OC)C(O[C@H]4C[C@H](OC)[C@@H](O)[C@H](C)O4)[C@H](C)O3)[C@@H](C)/C=C/C=C3\\CO[C@@H]4[C@H](O)C(C)=C[C@@H](C(=O)O1)[C@]34O)O2 (stereo partly specified)", "FALSE"),
    ("CC1(C)N=C(N)N=C(N)N1c1ccc(CCCCc2ccc(S(=O)(=O)F)cc2)c(Cl)c1", "FALSE"),
]

---

# Tested on: NCI/ADR-RES ovarian
# test: NCI-60 one-dose screen, 48 h (100 = growth as untreated, 0 = no growth, -100 = all killed)
# conditionSet: 10 µM unless noted
About 83,000 compounds went through this panel and 20% of them were active in at least one assay; those are over-represented in the sample as a whole.
# growth per entry

# compound, unitDescriptor, growth
data = [
    ("Cc1cc(N(CCCl)CCCl)ccc1C=Nc1ccc2ccccc2c1", "%", 71.2),
    ("C[As](=O)(O)c1ccc(C(=O)O)cc1", "%", 108),
    ("CNC(=O)Oc1ccccc1", "%", 102),
    ("Nc1ccc(N)c2c1Oc1ccccc1O2", "%", 94.9),
    ("C=CCC1(CC)C(=O)NC(=S)NC1=O", "%", 104),
    ("COc1cc(C2CC(=O)Nc3nc(N)[se]c32)c(OC)c2c1OCO2 (stereo not given)", "%", 109),
    ("CC(N)Cc1ccc(O)cc1 (stereo not given)", "%", 103),
    ("Cc1cc(NC(=O)CCc2ccc(N3C(N)=NC(N)=NC3(C)C)cc2)ccc1S(=O)(=O)F", "%", 19.2),
    ("O=c1[nH]c2cc(Cl)ccc2n1C1CCN(CCCC(c2ccc(F)cc2)c2ccc(F)cc2)CC1", "%", 51.9),
    ("C[C@]12CC[C@@H]3C4=C(CC[C@H]3[C@@H]1CC[C@@H]2O)CC(=O)CC4", "%", 95.8),
    ("CCC[CH2][Sn]1([CH2]CCC)[O]C(=O)c2cccc([N+](=O)[O-])c2C(=O)[O]1", "%", -54.4),
    ("CCN1CC2(CN(CC)C1=S)C(=O)NC(=O)NC2=O", "%", 97.4),
    ("C[CH2][Pb]([CH2]C)([CH2]C)[O]C(=O)COC", "%", 4.13),
    ("NC(=O)NC(=O)CI", "%", 99.4),
    ("C[C@]12CCC(=O)CC1CC[C@@H]1C2CC[C@@]2(C)C1CC[C@@H]2OC(=O)CC[Se][Se]CCC(=O)O[C@H]1CCC2[C@@H]3CCC4CC(=O)CC[C@]4(C)C3CC[C@@]21C (stereo not given in full)", "%", 92.9),
]

---

# Tested on: HL-60(TB) leukemia
# test: NCI-60 one-dose screen, 48 h (100 = growth as untreated, 0 = no growth, -100 = all killed)
# conditionSet: 10 µM unless noted
About 83,000 compounds went through this panel and 20% of them were active in at least one assay; those are over-represented in the sample as a whole.
growth below 40% gives n; growth at or above it gives y.

# compound, className
rows = [
    ("O=C(C[n+]1ccccc1Cl)c1ccc2c(c1)CCCC2", "y"),
    ("COc1ccc(OC)c(N(CCN2C(=O)c3ccccc3C2=O)C(=O)CCl)c1", "n"),
    ("Cc1ccc(OCCOCCOCCOc2ccc(C)n(O)c2=S)c(=S)n1O", "n"),
    ("Cc1nc2c(nnn2-c2ccccc2)c2nc(-c3ccccc3)oc(=O)c12", "y"),
    ("COc1ccc(-c2cc3c(C)nc(N)nc3n(C3CCC(OCCO)CC3)c2=O)cn1 (centres undefined)", "n"),
    ("NCCNc1nc2ccccc2c2c(=O)c3cc(F)cc(Cl)c3sc12", "n"),
    ("C#CC1(O)CCC2(C)C(CCC3C4CCC(=O)C4(C)CCC32)C1 (centres undefined)", "y"),
    ("OC1CCCc2ccccc21 (centres undefined)", "y"),
]

Data credit: PubChem BioAssay (NCI)
